All values here come from ChEMBL document CHEMBL5352464.

For UniProt:Q72874, measured IC50 is reported for the entries below.
Measured Endpoint: IC50 (nM)

1. COc1ccc(S(=O)(=O)N(CC(C)C)C[C@@H](O)[C@H](Cc2ccccc2)NC(=O)c2coc3cc(O)ccc23)cc1 : 1560
2. CC(C)CN(C[C@@H](O)[C@H](Cc1ccccc1)NC(=O)c1cc2cc(O)ccc2[nH]1)S(=O)(=O)c1ccc(N)cc1 : 860
3. COc1ccc(S(=O)(=O)N(CC(C)C)C[C@@H](O)[C@H](Cc2ccccc2)NC(=O)c2cc3cc(O)c(O)cc3o2)cn1 : 2310
4. COc1ccc(S(=O)(=O)N(CC(C)C)C[C@@H](O)[C@H](Cc2ccccc2)NC(=O)c2c[nH]c3ccccc23)cc1 : 12900

====

# Tested Target: Human immunodeficiency virus type 1 protease (Human immunodeficiency virus 1)
IC50 strictly under 2 µM means yes (1); at 2 µM or over means no (0).

1. COc1ccc(S(=O)(=O)N(CC(C)C)C[C@@H](O)[C@H](Cc2ccccc2)NC(=O)c2cc3ccc(O)cc3o2)cn1 : no (0)
2. COc1ccc(S(=O)(=O)N(CC(C)C)C[C@@H](O)[C@H](Cc2ccccc2)NC(=O)c2cc3cc(N)ccc3o2)cc1 : no (0)
3. CC(C)CN(C[C@@H](O)[C@H](Cc1ccccc1)NC(=O)c1cc2ccc(O)cc2[nH]1)S(=O)(=O)c1ccc(N)cc1 : yes (1)
4. CC(C)CN(C[C@@H](O)[C@H](Cc1ccccc1)NC(=O)c1cc2ccc(O)cc2o1)S(=O)(=O)c1ccc(N)cc1 : no (0)
5. COc1ccc(S(=O)(=O)N(CC(C)C)C[C@@H](O)[C@H](Cc2ccccc2)NC(=O)c2cc3cc(O)ccc3[nH]2)cn1 : yes (1)
6. COc1ccc(S(=O)(=O)N(CC(C)C)C[C@@H](O)[C@H](Cc2ccccc2)NC(=O)c2coc3ccccc23)cc1 : no (0)
7. COc1ccc(S(=O)(=O)N(CC(C)C)C[C@@H](O)[C@H](Cc2ccccc2)NC(=O)c2cc3cc(O)c(O)cc3[nH]2)cn1 : yes (1)
8. COc1ccc(S(=O)(=O)N(CC(C)C)C[C@@H](O)[C@H](Cc2ccccc2)NC(=O)c2cc3ccccc3o2)cc1 : no (0)
9. COc1ccc(S(=O)(=O)N(CC(C)C)C[C@@H](O)[C@H](Cc2ccccc2)NC(=O)c2cc3ccccc3[nH]2)cc1 : no (0)
10. COc1ccc(S(=O)(=O)N(CC(C)C)C[C@@H](O)[C@H](Cc2ccccc2)NC(=O)c2cc3cc(O)c(O)cc3o2)cc1 : yes (1)
11. COc1ccc(S(=O)(=O)N(CC(C)C)C[C@@H](O)[C@H](Cc2ccccc2)NC(=O)c2cc3cc(O)ccc3o2)cc1 : no (0)
12. COc1ccc(S(=O)(=O)N(CC(C)C)C[C@@H](O)[C@H](Cc2ccccc2)NC(=O)c2coc3cc(O)c(O)cc23)cn1 : yes (1)

====

# System: Human immunodeficiency virus 1
# Assay Name: microbe, parasite or virus in culture
pEC50: −log10 of the molar value.
Measured Endpoint: pEC50

1) COc1ccc(S(=O)(=O)N(CC(C)C)C[C@@H](O)[C@H](Cc2ccccc2)NC(=O)c2cc3cc(O)c(O)cc3[nH]2)cn1 : 5.66
2) COc1ccc(S(=O)(=O)N(CC(C)C)C[C@@H](O)[C@H](Cc2ccccc2)NC(=O)c2coc3cc(O)c(O)cc23)cn1 : 5.55
3) COc1ccc(S(=O)(=O)N(CC(C)C)C[C@@H](O)[C@H](Cc2ccccc2)NC(=O)c2cc3cc(O)c(O)cc3o2)cn1 : 4.77
4) COc1ccc(S(=O)(=O)N(CC(C)C)C[C@@H](O)[C@H](Cc2ccccc2)NC(=O)c2cc3cc(O)c(O)cc3o2)cc1 : 4.78
